# studyTarget: T1, TGFβ2 (transforming growth factor beta 2) (Homo sapiens, UniProt P61812 SEQ:1-112)
# T1 sequence: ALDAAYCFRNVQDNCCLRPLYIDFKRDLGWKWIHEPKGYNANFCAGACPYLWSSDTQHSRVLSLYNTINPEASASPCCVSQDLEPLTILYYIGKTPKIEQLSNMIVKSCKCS
# testDetails: filter; 37C; Ki 10 nM in cell assay
# conditions: chain copies: 2 (inferred, homodimer)
# Method: The binding activity of individual ligands was determined by measuring the equilibrium dissociation constants using nitrocellulose partitioning of labeled RNA as a function of protein concentration. RNA was body-labeled or guanylated and then 5′-end labeled with γ-³²P ATP and T4 polynucleotide kinase. […] The binding reactions were aspirated through the filters, washed with 1-5 ml of binding buffer and counted in a scintillation counter (Beckmann).
measurementType: Kd

Note to self: Kd recorded for 21a-21 (ssRNA, 2'-F C and U) RNA: GGGAGGACGAUGCGGUUCAGGAGGUUAUUACAGAGUCUGUAUAGCUGUACUCCCCAGACGACUCGCCCGA was ~1 nM
